# ELISA OD-MCP-1 values compiled below
Target: T1, human monocyte chemo-attractant protein-1 (MCP-1) (human, UniProt P13500 24-99)
T1 construct: 76-residue recombinant protein from E. coli, bought (PeproTech); also called hMCP-1(MCAF); human MCP-1
T1 sequence (P13500 24-99): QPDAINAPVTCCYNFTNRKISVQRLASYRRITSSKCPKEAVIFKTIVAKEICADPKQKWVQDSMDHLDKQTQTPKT
Assay: ELISA, hybridoma supernatant on coated MCP-1
Note: unit OD450 is implicit; provide only the numeric part.

Solved cases (3 shown):
[[record]]
binder = "anti-MCP-1 mAb 3.10.1 (antibody, V domains shown) VH: QVQLVQSGAEVKKPGASVKVSCKVSGYTLTELSMHWVRQAPGKGLEWMGGFDPEDGETIYAQKFQGRVMMTEDTSTDTAFMDLSSLRSEDTAVYYCATDDMLTPHYLYFGMDVWGQGTTVTVSS VL: DIQMTQSPSSLSASVGDRVTITCRASQGIRNDLGWYQQKPGKAPKRLIYATSSLQSGVPSRFSGSGSGTEFTLTISSLQPEDFATYYCLQHNTYPFTFGPGTKVDIKR"
quantity_kind = "ELISA OD-MCP-1"
test_value = 3.63

[[record]]
binder = "anti-MCP-1 mAb 3.4.1 (antibody, V domains shown) VH: QVQLVQSGAEVKKPGASVKVSCKVSGYTLTELSMHWVRQAPGKGLEWMGGFDPEDGETMYAQKFQGRVTMTEDTSTDTAYMELSSLRSEDTAVYYCATDDFWSGYFDYWGQGTLVTVSS VL: DIVMTQSPDSLAVSLDERATINCKSSQSVLYSPNQKNYLVWYQQKPGQPPKLLLYWASIRESGVPDRFSGSGSGTDFTLTISSLQAEDVAVYYCQQSYFTPWTFGQGTKVEIKR"
quantity_kind = "ELISA OD-MCP-1"
test_value = 3.86

[[record]]
binder = "anti-MCP-1 mAb 1.2.1 (antibody, V domains shown) VH: QVQLVQSGAEVKKPGASVKVSCKVSGYTFTELSMHWVRQAPGKGLEWMGGFDPEDGETSYAQKFRGRVTMTEDTSTDTAHMELSSLRSEDTAVYYCATNDFWSGYFDYWGQGTLVTVSS VL: DIQMTQSPSSVSASVGDRVTITCRASQGIDIYLAWYQQKPGKAPKLLINAASSLQNGVPSRFGGSGSGTDFTLTISGLQPEDFATYYCQLTYFFPWTFGQGTKVEIKR"
quantity_kind = "ELISA OD-MCP-1"
test_value = 3.47


// returns reported ELISA OD-MCP-1 for input anti-MCP-1 mAb 3.16.1 (antibody, V domains shown) VH: QVQLVQSGAEVKKPGASVKVSCKVSGYTLTDLSMHWVRQAPGKGLEWMGGFDPEDGETIYAQKFQGRVTMTEDTSSDTAYMELSSLRSEDTAVYYCATHEFWSGYFDYWGQGTLVTVSS VL: DIVMTQSPDSLAVSLGERATINCKSSQSVLFSSNNKSYLTWYQQKPGQPPKLLIFWASIRESGVPDRISGSGSGTDLTLTISSLQAEDAAVYYCQQYYSSPWTFGQGTKVEIKR
3.92

Data origin, for the record: patent US20050058639A1
